Here, each record is paired with measured Kd data.
Molecular target: T1, human Mcl-1 a.a. 172-327 with C-terminal avi-6his tag (human)
T1 chain: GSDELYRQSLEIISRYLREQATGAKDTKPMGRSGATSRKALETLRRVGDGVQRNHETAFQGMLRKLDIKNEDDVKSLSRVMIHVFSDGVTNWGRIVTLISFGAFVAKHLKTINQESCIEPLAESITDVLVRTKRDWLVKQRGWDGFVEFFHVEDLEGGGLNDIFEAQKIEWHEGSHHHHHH
Experiment: yeast surface display titration (apparent KD)
State the answer as a number, implicitly in nM.

The following binders have reported results that may help.
BbpD04.3 (designed binder) ADWKKVLDKAKDIAENRVRELKQKLEEFYKEAMKLDLTQEMRRKLMLRWIAAMLMAIGDIFNAIRQAKQEADKLKKAGLVNSQQLDELKRRLEELKEEASRKARDYGREFQLKLEY: 19
BbpD04 (designed binder) ADWKKVLDKAKDIAENRVREIKQKLEEFYKKAMKLDLTQEMRRKLMLEWIAAMLMAIGDIFNAIEQAKQEADKLKKAGQVNSQLLDELKRRLEELKEEASRKCHDYGREFQLKLEY: 17
BbpD04.1 (designed binder) ADWKKVLDKAKDIAENRVREIKQKLEEFYKEAMKLDLTQEMRRKLMLRWIAAMLMAIGDIFNAIRQAKQEADKLKKAGQVNSQLLDELKRRLEELKEEASRKCHDYGREFQLKLEY: 30

Let us move to another entry and its Kd.
Entry BbpD04.2 (designed binder) ADWKKVLDKAKDIAENRVRELKQKLEEFYKEAMKLDLTQEMRRKLMLRWIAAMLMAIGDIFNAIRQAKQEADKLKKAGLVNSQQLDELKRRLEELKEEASRKCRDYGREFQLKLEY has what Kd? 26

Origin of values: patent US20160376333A1
